Molecular target: NaV1.5 (Homo sapiens, UniProt Q14524)
Sequence (Q14524 whole entry): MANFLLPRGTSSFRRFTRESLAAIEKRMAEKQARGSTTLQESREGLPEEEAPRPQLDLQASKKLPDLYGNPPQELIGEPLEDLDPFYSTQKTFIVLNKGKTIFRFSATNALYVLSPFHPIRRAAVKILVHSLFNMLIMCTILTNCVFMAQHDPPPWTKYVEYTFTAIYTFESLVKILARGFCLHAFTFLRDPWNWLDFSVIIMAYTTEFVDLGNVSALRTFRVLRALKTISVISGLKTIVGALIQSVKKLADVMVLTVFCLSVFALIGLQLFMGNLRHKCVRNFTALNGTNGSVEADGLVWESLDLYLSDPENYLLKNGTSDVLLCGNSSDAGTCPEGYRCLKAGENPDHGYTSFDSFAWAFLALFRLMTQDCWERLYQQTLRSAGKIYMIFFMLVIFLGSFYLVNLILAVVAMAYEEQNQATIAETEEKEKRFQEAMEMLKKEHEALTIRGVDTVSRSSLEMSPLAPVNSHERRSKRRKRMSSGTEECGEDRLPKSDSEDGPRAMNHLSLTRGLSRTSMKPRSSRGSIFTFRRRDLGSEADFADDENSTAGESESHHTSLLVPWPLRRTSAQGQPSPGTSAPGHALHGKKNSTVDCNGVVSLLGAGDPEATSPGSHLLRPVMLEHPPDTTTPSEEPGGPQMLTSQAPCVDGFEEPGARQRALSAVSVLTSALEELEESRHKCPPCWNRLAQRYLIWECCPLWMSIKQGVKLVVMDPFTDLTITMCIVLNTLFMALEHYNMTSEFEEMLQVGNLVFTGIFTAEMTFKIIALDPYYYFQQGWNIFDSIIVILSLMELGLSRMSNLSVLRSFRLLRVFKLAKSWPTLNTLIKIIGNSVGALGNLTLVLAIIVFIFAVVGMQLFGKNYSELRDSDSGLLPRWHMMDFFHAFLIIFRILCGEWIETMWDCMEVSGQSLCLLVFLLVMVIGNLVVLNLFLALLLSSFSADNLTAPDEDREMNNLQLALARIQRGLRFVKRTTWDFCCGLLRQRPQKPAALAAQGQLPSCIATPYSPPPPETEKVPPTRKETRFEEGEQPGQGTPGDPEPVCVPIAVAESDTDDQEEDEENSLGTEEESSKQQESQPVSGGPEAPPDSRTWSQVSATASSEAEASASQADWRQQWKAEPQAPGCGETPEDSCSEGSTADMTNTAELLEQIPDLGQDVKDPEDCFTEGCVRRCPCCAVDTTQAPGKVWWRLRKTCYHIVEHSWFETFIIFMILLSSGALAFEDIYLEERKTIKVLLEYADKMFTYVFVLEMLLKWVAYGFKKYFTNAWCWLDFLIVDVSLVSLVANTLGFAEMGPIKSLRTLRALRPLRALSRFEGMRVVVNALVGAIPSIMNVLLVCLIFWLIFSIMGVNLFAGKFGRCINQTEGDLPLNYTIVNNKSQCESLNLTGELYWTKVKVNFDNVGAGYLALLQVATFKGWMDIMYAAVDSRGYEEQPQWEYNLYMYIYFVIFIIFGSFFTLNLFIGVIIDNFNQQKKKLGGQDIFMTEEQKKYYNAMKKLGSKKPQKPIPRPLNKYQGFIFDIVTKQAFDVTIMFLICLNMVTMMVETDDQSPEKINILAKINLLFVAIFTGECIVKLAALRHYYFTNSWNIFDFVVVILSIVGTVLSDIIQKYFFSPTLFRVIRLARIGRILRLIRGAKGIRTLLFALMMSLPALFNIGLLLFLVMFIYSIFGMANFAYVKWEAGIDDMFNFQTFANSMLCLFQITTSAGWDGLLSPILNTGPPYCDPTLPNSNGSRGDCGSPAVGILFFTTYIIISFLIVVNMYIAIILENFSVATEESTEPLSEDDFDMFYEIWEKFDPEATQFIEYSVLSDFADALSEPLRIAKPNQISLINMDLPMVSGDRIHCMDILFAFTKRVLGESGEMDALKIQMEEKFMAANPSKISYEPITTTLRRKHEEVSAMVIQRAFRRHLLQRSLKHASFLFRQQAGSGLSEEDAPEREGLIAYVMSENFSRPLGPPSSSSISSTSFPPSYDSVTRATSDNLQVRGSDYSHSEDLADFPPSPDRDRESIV
Assay: Cell membrane chromatography
Format: binding
Details: capacity factor k′; reflects potential cardiac toxicity; k′ < 0 labeled as 0

{"compound": "CCCNC(C)C(=O)Nc1c(C)csc1C(=O)OCC(C)C (centres unmarked)", "k′ NaV1.5": 105.4}
{"compound": "COC(=O)c1scc(C)c1NC(=O)C(C)N1C(C)COCC1C (centres unmarked)", "k′ NaV1.5": 24}
{"compound": "CCCCOC(=O)c1scc(C)c1NC(=O)C(C)NCCC (centres unmarked)", "k′ NaV1.5": 35}
{"compound": "COC(=O)c1scc(C)c1NC(=O)C(C)N1CCNCC1 (centres unmarked)", "k′ NaV1.5": 80.8}
{"compound": "COC(=O)c1scc(C)c1NC(=O)C(C)N1CCS(=O)(=O)CC1 (centres unmarked)", "k′ NaV1.5": 0}
